pKi: −log10 of the molar value.
UniProt:P36888 pKi, compiled from various sources.

Field: example entries. Status: answers known.
> print(dat)
                                   molecule     test.target  reported.measurement
1  CN(C)C1CC=C(c2cnc3[nH]cc(-c4oncc4-c4cccc(F)c4F)c3c2)CC1 (centres unmarked)  UniProt:P36888                > 6.70
2  Fc1cccnc1-c1cnc2[nH]cc(-c3oncc3-c3cccc(F)c3F)c2c1  UniProt:P36888          4.90 to 6.00
3  CCCc1cc2c(N[C@H]3CC[C@H](N)CC3)c(-c3ccccn3)cnc2[nH]1  UniProt:P36888                > 7.00
4        c1cnc2[nH]cc(-c3oncc3C3CCCCC3)c2c1  UniProt:P36888          6.00 to 6.70
5  Cc1cc(Nc2cc(N3CC(O)(C4CC4)C3)nc(Sc3ccc(NC(=O)C4CC4)cc3)n2)n[nH]1  UniProt:P36888                  7.55
6  Nc1cccc(-c2cnc3[nH]cc(-c4oncc4-c4cccc(F)c4F)c3c2)c1  UniProt:P36888                > 6.70
7  COc1cnc2[nH]cc(-c3oncc3-c3cccc(Cl)c3Cl)c2c1  UniProt:P36888          6.00 to 6.70
8  CC(O)c1cc2c(N[C@H]3CC[C@H](O)CC3)c(-c3ccc(CN4CCOCC4)cn3)cnc2[nH]1 (some centres unmarked)  UniProt:P36888                > 7.00

Q. Quote pKi with test system UniProt:P36888 for "CN(C)Cc1ccnc(-c2cnc3[nH]cc(-c4oncc4-c4cccc(F)c4F)c3c2)c1"
A. > 6.70

Q. Quote pKi with test system UniProt:P36888 for Fc1cccc(-c2cnoc2-c2c[nH]c3ncc(C4=CCC(NCc5ccccc5)CC4)cc23)c1F (centres unmarked)
A. 6.00 to 6.70

Q. Quote pKi with test system UniProt:P36888 for "CN(C)c1ccc(-c2cnc3[nH]cc(-c4nncn4-c4cccc(F)c4F)c3c2)cc1"
A. 6.00 to 6.70

Q. Quote pKi with test system UniProt:P36888 for "Fc1cccc(-n2cnnc2-c2c[nH]c3ncc(-c4ccc(N5CCCC5)nc4)cc23)c1F"
A. 6.00 to 6.70

Q. Quote pKi with test system UniProt:P36888 for "Fc1cccc(-c2cnoc2-c2c[nH]c3ncc(CCn4cncn4)cc23)c1F"
A. 6.00 to 6.70

Q. Quote pKi with test system UniProt:P36888 for "CC(=O)N1CCC(c2cnc3[nH]cc(-c4oncc4-c4cccc(F)c4F)c3c2)CC1"
A. 6.00 to 6.70

Q. Quote pKi with test system UniProt:P36888 for "CN(C)c1ccnc(-c2cnc3[nH]cc(-c4oncc4-c4cccc(F)c4F)c3c2)c1"
A. 4.90 to 6.00

Q. Quote pKi with test system UniProt:P36888 for "COC(=O)c1cnc2[nH]cc(-c3oncc3-c3cccc(F)c3F)c2c1"
A. > 6.70

Q. Quote pKi with test system UniProt:P36888 for "CN(C)CC#Cc1cnc2[nH]cc(-c3oncc3-c3cccc(F)c3F)c2c1"
A. 6.00 to 6.70
